# Lookup of reported composite z-score keyed by entry
MEASURED TARGET: Torsin-1A (Homo sapiens)
METHOD DESCRIPTION: torsin A binders from cell lysate, primary screen, small-molecule microarray, wild-type, 635/667 nm (AID 1149)
CONDITION CONTEXT: COS7 hTOR1A-WT lysate, 635 nm fluorescence, higher = more signal

Some molecules with recorded composite z-score:
Which measured composite z-score value corresponds to "CCCC=C(CCC)[C@@H](NS(=O)(=O)c1ccc(C(F)(F)F)cc1)c1ccc(-c2ccccc2)cc1" ?
0.059

Please report the recorded composite z-score for "O=C1c2ccccc2[C@](Cc2ccccc2I)(C(=O)O)[C@H](c2ccc(CO)cc2)N1C1CCCCC1" .
0.0702

Please look up its composite z-score: COC(=O)c1ccc(C#CC(NP(=O)(c2ccccc2)c2ccccc2)c2ccccc2)cc1 (stereo not drawn)
-0.497

Further cases:
Find the recorded composite z-score belonging to "CCN1C(C)=C(C(=O)OC)[C@@H](c2ccccc2)N2C(=O)[C@@]3(C(=O)OC)O[C@@]12[C@@H]1C(=O)N(c2ccccc2)C(=O)[C@@H]13" and report it.
0.224

// composite z-score lookup, key: "CCC(=O)[C@]12O[C@@]3([C@@H]4C(=O)OCC[C@@H]41)N(CC)C(C)=C(C(=O)OC)[C@@H](c1ccccc1)N3C2=O"
-0.0028

Which composite z-score reading was recorded for the molecule "COc1ccc(C(=O)Nc2ccc(CN3C(=O)[C@]4(O[C@H](CCn5cc(CCO)nn5)[C@@H]([Si](C)(C)c5ccc(OC)cc5)[C@@H]4C)c4ccccc43)cc2)cc1" ?
0.421

Which measured composite z-score value corresponds to "C=C(CCCC)/C(=C/C[C@@H](OC(=O)c1ccncc1)c1ccc(CO)o1)c1cnc2ccccc2c1" ?
1.42

Entry under review: "C=CCNC(=O)[C@@H]1[C@H]2C(=O)O[C@H](c3ccccc3)[C@H](c3ccccc3)N2[C@H](c2ccc(OCCO)cc2)[C@@]12C(=O)N(C(=O)OCCOC)c1ccc(C#CC3(O)CCCCCC3)cc12" . Reported composite z-score?
0.42

Look up composite z-score for this molecule: "[N-]=[N+]=NCc1ccccc1C[C@@]1(C(=O)O)N=C(c2ccc(OCCCO)cc2)O[C@@H]1c1ccccc1N=[N+]=[N-]"
0.0819

Could you tell me which composite z-score is on file for "C=CCOC(=O)[C@@H]1[C@H]2C(=O)O[C@H](c3ccccc3)[C@H](c3ccccc3)N2[C@H](c2ccc(OCCOC(=O)[C@H]3C[C@H]4C(=O)N[C@@H](CCCCNC(C)=O)C(=O)N4[C@H]3c3ccc(O)cc3)cc2)[C@@]12C(=O)Nc1ccc(I)cc12" ?
1.32

Given "C=CC[C@@]1(C(=O)N2CCOCC2)N=C(c2ccc(OCCCO)cc2)O[C@@H]1c1ccccc1" , state its recorded composite z-score.
0.0827

Give the measured composite z-score of "CCc1cccc(NC(=O)O[C@H]2[C@H](OC(=O)Nc3ccccc3)[C@@H](OC(=O)Nc3ccccc3)[C@@H](OC)O[C@@H]2CO)c1" .
2.73

Reported composite z-score for "CO[C@H]1O[C@H](CO)[C@@H](OC(=O)Nc2ccc(Oc3ccccc3)cc2)[C@H](OC(=O)Nc2ccccc2-c2ccccc2)[C@H]1OC(=O)Nc1ccccc1-c1ccccc1" : what is it?
0.445
